Molecular target: Mast/stem cell growth factor receptor Kit (Homo sapiens, UniProt P10721)
Sequence (P10721 whole entry): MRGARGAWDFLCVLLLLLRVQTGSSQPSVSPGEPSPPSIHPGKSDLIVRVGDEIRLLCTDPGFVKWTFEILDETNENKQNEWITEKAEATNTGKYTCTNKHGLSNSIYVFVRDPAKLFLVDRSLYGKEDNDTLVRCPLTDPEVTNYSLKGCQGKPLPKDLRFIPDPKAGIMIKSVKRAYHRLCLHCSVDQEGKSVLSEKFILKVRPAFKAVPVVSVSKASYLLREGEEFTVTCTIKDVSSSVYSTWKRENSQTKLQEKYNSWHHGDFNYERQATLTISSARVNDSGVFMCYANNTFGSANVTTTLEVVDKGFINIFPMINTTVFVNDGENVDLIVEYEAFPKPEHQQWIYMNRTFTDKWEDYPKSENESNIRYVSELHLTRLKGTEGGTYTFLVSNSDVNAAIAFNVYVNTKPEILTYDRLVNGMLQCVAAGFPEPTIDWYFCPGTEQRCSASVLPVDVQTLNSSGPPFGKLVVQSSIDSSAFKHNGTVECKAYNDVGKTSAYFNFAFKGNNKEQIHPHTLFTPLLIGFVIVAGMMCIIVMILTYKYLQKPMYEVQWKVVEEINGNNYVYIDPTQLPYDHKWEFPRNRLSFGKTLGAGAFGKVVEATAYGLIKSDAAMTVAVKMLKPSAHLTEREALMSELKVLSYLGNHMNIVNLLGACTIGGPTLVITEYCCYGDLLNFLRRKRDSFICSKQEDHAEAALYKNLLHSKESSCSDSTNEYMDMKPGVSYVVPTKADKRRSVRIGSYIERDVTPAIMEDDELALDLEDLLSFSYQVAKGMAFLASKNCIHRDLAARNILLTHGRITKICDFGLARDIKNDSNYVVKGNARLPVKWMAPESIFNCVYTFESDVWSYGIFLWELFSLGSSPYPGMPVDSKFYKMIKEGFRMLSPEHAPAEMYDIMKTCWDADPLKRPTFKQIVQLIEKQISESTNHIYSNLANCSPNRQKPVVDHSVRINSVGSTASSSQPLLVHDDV
Assay: Inhibition of recombinant c-Kit (unknown origin) using poly (Glu, Tyr) 4:1 as substrate after 60 mins by ELISA
measurement kind: IC50

1) CCN(CC)CCCNC(=O)Nc1cc2c(Nc3ccc(F)c(Cl)c3)ncnc2cc1O[C@H]1CCOC1; > 10 µM

In the following, a different compound is considered.
Any idea what its IC50 is? The compound is O=C(NCCN1CCCC1)Nc1cc2c(Nc3ccc(F)c(Cl)c3)ncnc2cc1O[C@H]1CCOC1
> 10 µM

----------
Below, each of the molecules is paired with its reported IC50 value.
Target: Epidermal growth factor receptor (Homo sapiens, UniProt P00533, L858M/T790M)
Sequence (P00533 25-1210 T790M/L858M limits assumed): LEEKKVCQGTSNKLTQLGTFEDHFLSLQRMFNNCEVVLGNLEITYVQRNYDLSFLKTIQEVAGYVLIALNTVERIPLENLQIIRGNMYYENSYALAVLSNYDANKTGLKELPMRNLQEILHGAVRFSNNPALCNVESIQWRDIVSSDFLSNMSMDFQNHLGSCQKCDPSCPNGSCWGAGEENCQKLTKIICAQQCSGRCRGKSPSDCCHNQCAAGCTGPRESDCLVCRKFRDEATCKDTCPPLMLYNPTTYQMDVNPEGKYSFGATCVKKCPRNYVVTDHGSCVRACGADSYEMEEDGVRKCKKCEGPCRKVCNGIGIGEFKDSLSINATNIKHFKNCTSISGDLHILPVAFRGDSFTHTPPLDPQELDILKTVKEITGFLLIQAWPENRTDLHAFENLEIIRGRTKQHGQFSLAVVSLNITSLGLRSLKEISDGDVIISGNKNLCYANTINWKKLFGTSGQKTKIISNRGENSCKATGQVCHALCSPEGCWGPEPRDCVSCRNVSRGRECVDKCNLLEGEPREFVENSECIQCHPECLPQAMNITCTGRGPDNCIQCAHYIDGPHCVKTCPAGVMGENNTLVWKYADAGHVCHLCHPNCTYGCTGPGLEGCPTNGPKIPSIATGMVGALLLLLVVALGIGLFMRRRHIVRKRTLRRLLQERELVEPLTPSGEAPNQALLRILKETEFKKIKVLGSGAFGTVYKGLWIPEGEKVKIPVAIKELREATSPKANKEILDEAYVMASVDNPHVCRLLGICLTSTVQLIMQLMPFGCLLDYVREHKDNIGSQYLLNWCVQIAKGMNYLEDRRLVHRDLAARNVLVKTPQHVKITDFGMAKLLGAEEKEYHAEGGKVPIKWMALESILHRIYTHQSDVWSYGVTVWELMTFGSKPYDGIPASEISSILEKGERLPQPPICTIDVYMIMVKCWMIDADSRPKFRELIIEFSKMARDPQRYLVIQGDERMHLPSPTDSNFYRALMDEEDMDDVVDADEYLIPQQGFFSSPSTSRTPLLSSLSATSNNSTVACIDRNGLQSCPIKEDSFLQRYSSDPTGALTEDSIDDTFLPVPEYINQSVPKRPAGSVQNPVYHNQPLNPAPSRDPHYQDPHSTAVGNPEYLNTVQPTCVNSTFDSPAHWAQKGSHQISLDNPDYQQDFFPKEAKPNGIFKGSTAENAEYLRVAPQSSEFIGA
Assay: Inhibition of EGFR T790M/[…] double mutant (unknown origin) expressed in baculovirus expression system using poly (Glu, Tyr) 4:1 as substrate after 60 mins by ELISA
Numbers only here, please. The scale is nM.

Some entries whose results are on file:
1. O=C(Nc1cc2c(Nc3ccc(F)c(Cl)c3)ncnc2cc1O[C@H]1CCOC1)N1CCN(CCO)CC1; 4210
2. COC(CCNC(=O)Nc1cc2c(Nc3ccc(F)c(Cl)c3)ncnc2cc1O[C@H]1CCOC1)OC; 400
3. O=C(Nc1cc2c(Nc3ccc(F)c(Cl)c3)ncnc2cc1O[C@H]1CCOC1)N1CCC(CCO)CC1; 2940

Shift focus to the following entry.
Recorded IC50 for CN(C)CCCNC(=O)Nc1cc2c(Nc3ccc(F)c(Cl)c3)ncnc2cc1O[C@H]1CCOC1 , please?
276
